Biological target: T1, RHPN1, Q8TCX5
T1 sequence (Q8TCX5 508-602, limits assumed, looked up): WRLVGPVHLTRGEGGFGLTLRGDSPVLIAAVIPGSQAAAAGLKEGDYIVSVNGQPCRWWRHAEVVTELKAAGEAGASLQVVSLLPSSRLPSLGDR
Assay: holdup assay
Design: key: below the threshold = too weak to quantify, mostly under pKd 3.1 to 4
Details: plain residues with an end cap or a label only (N-terminal biotin on a linker: ado-ado)

{"BINDER": "SGDGKTSVWI [GJC1, P36383]", "pKd": "below the threshold"}
{"BINDER": "SQPLLVHDDV [KIT, P10721]", "pKd": "below the threshold"}
{"BINDER": "KKTPVSRSHL [SLC22A3, O75751]", "pKd": "below the threshold"}

Entry source: paper PMC9482650
